# target-entity: Protein Tat (Human immunodeficiency virus type 1 group M subtype B (isolate HXB2)) (UniProt P04608)
# Sequence (P04608 whole entry, looked up): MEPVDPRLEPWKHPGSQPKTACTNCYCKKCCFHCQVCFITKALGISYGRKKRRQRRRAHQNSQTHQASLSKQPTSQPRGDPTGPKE
# assay-overview: inhibitors of Tat binding to TAR RNA, dose response, counter-screen for Vif-APOBEC3G degradation inhibitor project, biochemical, fluorescence polarization, FAM-labeled TAR RNA (AID 1117361)
recorded-endpoint: pIC50
Hey, just a heads up that pIC50 is the negative log base 10 of the concentration in molar.

Field: example entries. Status: answers known.
O=S(=O)(c1ccc2nc(-c3ccco3)c(-c3ccco3)nc2c1)N1CCOCC1	4.35
Cc1nn(-c2ccccc2)c2sc(C(=O)N3CCc4ccccc4C3)cc12	4.40
CCOC(=O)C(=O)Cc1cccnn1	4.31
O=[N+]([O-])c1ccccc1S(=O)(=O)NC1CCCC1	4.35
CCc1cc2cc(C)cc(C)c2nc1SCC(=O)N1CCN(C(=O)c2ccco2)CC1	4.41
CC(=O)Nc1ccc(S(=O)(=O)NCCSCc2ccco2)cc1	4.18

Problem: // query pIC50 value for entry O=C1CCC/C(=N\NC(=O)c2ccc(COc3cccc4cccnc34)cc2)C1
Result: 4.08

Problem: May I ask what pIC50 has been recorded for Cc1ccc(S(=O)(=O)OCC(=O)Nc2ccc(C(=O)O)c(O)c2)cc1 ?
Result: 4.12

Problem: Requested field: pIC50. Item: O=C(COC(=O)/C=C/c1ccco1)Nc1ncc(C(F)(F)F)cc1Cl
Result: 4.70

Problem: Looking for the measured pIC50 of Cc1cc(C(=O)CSc2nnc(-c3ccco3)o2)c(C)n1Cc1ccco1 , can you help?
Result: 5.36

Problem: Quick one: pIC50 for Cc1ccccc1NC(=O)c1c(C)[nH]c(=S)c(C#N)c1-c1ccco1 ?
Result: 5.05

Problem: Fill in the blank: the reported pIC50 of COc1cc(NCCCCCCN)c2ncccc2c1OC is ____.
Result: 4.25

Problem: Find the recorded pIC50 belonging to O=[N+]([O-])c1cc(Br)c(O)c(C=Nc2ccc(N3CCOCC3)cc2)c1 and report it.
Result: 4.11

Problem: I'd like to know its pIC50. The molecule in question is Cc1sc2ncnc(SCc3ccco3)c2c1C
Result: 4.75

Problem: Reported pIC50, molecule Cc1cccn2c(=O)c3cc(C(=O)NCc4ccco4)c(=N)n(CCc4ccccc4)c3nc12 : ____
Result: 4.93

Problem: For the molecule shown here, Oc1ccc(/C=N/N2CCOCC2)c(O)c1O , give the reported pIC50.
Result: 4.85

Problem: For N#C/C(=C\c1ccc([N+](=O)[O-])o1)C(=O)Nc1ccc(F)cc1 , what is its reported pIC50?
Result: 4.25

* * *

# target-entity: Protein Tat (Human immunodeficiency virus type 1 group M subtype B (isolate HXB2)) (UniProt P04608)
# assay-overview: inhibitors of Tat binding to TAR RNA, dose response, counter-screen for Vif-APOBEC3G degradation inhibitor project, biochemical, fluorescence polarization, FAM-labeled TAR RNA (AID 1117361)
IC50 reference

N#CC1=C(N)OC2=C(CCC/C2=C/c2ccoc2)C1c1ccoc1 (centres undefined)	7.35 µM
COC(=O)CCC(=O)OC1(C)C(=O)C=C2C=C3CCCN3C=C2C1=O (centres undefined)	11.1 µM
Oc1cc2c(cc1O)C1c3ccc(O)c(O)c3OCC1(O)C2 (centres undefined)	11.7 µM

Now for another entry.
Problem: For the compound O=S(=O)(O)c1cc(O)c2ccc(Nc3ccccc3)cc2c1 , what IC50 is on record?
Result: 12.5 µM

* * *

Measured pIC50 values are reported for all entries that follow.
# target-entity: Protein Tat (Human immunodeficiency virus type 1 group M subtype B (isolate HXB2)) (UniProt P04608)
# assay-overview: inhibitors of Tat binding to TAR RNA, dose response, counter-screen for Vif-APOBEC3G degradation inhibitor project, biochemical, fluorescence polarization, FAM-labeled TAR RNA (AID 1117361)
Note on pIC50: it is the negative log10 of concentration, concentration in mol/L.

Solved entries (count: 5):
C=CC(=O)N1C/C(=C/c2ccc(F)cc2)C(=O)/C(=C\c2ccc(F)cc2)C1	4.05
O=C(NC(=S)Nc1cccc(S(=O)(=O)NC2=NCCC2)c1)c1cc(-c2ccco2)nc2ccccc12	5.09
COc1ccc(-c2cc(C(=O)N/N=C/c3ccc(OC)c(COCC(F)(F)C(F)F)c3)c3ccccc3n2)c(OC)c1	4.00
C=CC1=C(C(=O)O)N2C(=O)C(NC(=O)Cc3ccccc3)C2SC1 (stereo not given)	4.19
Cc1cc(C(=O)NCCCN2CCCC2=O)no1	4.62

Problem: What measured pIC50 goes with Nc1ccc2c(O)cc(S(=O)(=O)O)cc2c1 ?
Result: 4.32

Problem: Param item = NC(CO)C(=O)NNCc1ccc(O)c(O)c1O (stereo not given) ; retrieve measured pIC50.
Result: 5.05

Problem: Param item = CN1CCc2cccc3c2[C@@H]1Cc1ccc(O)c(O)c1-3 ; retrieve measured pIC50.
Result: 5.04

Problem: Using the record for CCn1cc(Br)c(C(=O)Nc2cccc(SC)c2)n1 , report its pIC50.
Result: 5.84

Problem: Please report the recorded pIC50 for O=C1NC(=S)S/C1=C\C=C\c1ccc([N+](=O)[O-])o1 .
Result: 5.56
